Recorded IC50 by entry
# Tested on: P. falciparum TM4/8.2 (wild type)
# test-method-notes: microbe, parasite or virus in culture
# Format: cell-based, Plasmodium falciparum
# reported-conditions: Plasmodium falciparum; in vitro, wild-type strain TM4/8.2; read-out: IC50 P. falciparum TM4/8.2 (WT)
readout-name: IC50 (nM)

CCc1nc(N)nc(N)c1OCc1csc(-c2ccc(Cl)cc2)n1 : 1180
CCc1nc(N)nc(N)c1OCc1csc(-c2ccc(OCC(=O)OCc3ccccc3)cc2)n1 : 230
CCc1nc(N)nc(N)c1OCc1coc(-c2ccc(OCC(=O)OCc3ccccc3)cc2)n1 : 580
CCc1nc(N)nc(N)c1OCc1csc(-c2ccc(F)cc2)n1 : 790
CCc1nc(N)nc(N)c1OCCc1cn(-c2ccc(C(=O)OC)cc2)nn1 : 490
CCc1nc(N)nc(N)c1OCc1cc(-c2ccccc2)no1 : 670
CCc1nc(N)nc(N)c1OCc1csc(-c2ccccc2)n1 : 1200
CCc1nc(N)nc(N)c1OCCc1coc(-c2ccc(C(=O)O)cc2)n1 : 52

---

# System: P. falciparum V1/S (N51I + C59R + S108 + I164L)
# test-method-notes: microbe, parasite or virus in culture
# Format: cell-based, Plasmodium falciparum
# reported-conditions: Plasmodium falciparum, read-out: IC50 P. falciparum V1/S
readout-name: IC50

CCc1nc(N)nc(N)c1OCCc1coc(-c2ccccc2)n1 : 53.1 µM
CCc1nc(N)nc(N)c1-c1cn(CCOc2ccc(Cl)cc2)nn1 : 15.9 µM
CCc1nc(N)nc(N)c1-c1cn(Cc2ccc(C(=O)OC)cc2)nn1 : > 25 µM
CCc1nc(N)nc(N)c1-c1cn(Cc2ccccc2)nn1 : 19.9 µM
CCc1nc(N)nc(N)c1-c1cn(CCCc2ccccc2)nn1 : 32.3 µM
CCc1nc(N)nc(N)c1-c1cn(CCCOc2ccc(C(=O)OC)cc2)nn1 : > 50 µM
CCc1nc(N)nc(N)c1OCCCc1cc(-c2cccc(C#N)c2)no1 : 5.51 µM

---

# Test system: P. falciparum V1/S (N51I + C59R + S108 + I164L)
# test-method-notes: microbe, parasite or virus in culture
# Type: cell-based, Plasmodium falciparum
# reported-conditions: Plasmodium falciparum, read-out: IC50 P. falciparum V1/S
readout-name: IC50

CCc1nc(N)nc(N)c1-c1cn(CCc2ccccc2)nn1 : > 50 µM
CCc1nc(N)nc(N)c1OCCCc1cn(-c2ccc(C(=O)OC)cc2)nn1 : > 2 µM
CCc1nc(N)nc(N)c1OCc1csc(-c2cccc(C(=O)OC)c2)n1 : > 50 µM

---

Target sequence: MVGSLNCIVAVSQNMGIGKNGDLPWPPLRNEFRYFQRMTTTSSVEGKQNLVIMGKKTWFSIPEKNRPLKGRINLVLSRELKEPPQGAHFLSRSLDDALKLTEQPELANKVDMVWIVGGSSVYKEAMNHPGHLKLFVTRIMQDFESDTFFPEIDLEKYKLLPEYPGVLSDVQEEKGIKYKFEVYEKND
pKi: −log10 of the molar value.
readout-name: pKi

CCc1nc(N)nc(N)c1OCc1cn(-c2ccc([N+](=O)[O-])cc2)nn1 : < 3.30
CCc1nc(N)nc(N)c1OCc1cc(-c2ccc(C(F)(F)F)cc2)no1 : < 4.00
CCc1nc(N)nc(N)c1-c1cn(-c2cccc(C(=O)O)c2)nn1.Cl [Compound 2, Hydrochloride] : < 4.00

Reference source for all entries: patent US11028072B2
